# target under test: T1, recombinant cynomolgus CFD, His-tagged (cynomolgus)
# T1 construct: also called rcyCFD-His; recombinant Cyno-CFD
# method: SPR MX96
Kindly apply the following: TRUE if Kd is less than 7 nM, FALSE in every other case.

binder: KCD005 (antibody, V domains shown, chimeric) VH: EVQLQQSGPELVKPGASVKISCKASGYTFTDHYMNWVKQSHGKSLEWIGDINPNNGGTSCNQKFKGKATLTVDKSSSTAYMELRSLTSGDSAVYYCTREGASFAFWGQGTLVTVSA VL: DVLMTQTPLSLPVSLGDQASISCRSSQSIVHSNGDTYLEWYLQKPGQSPKLLIYKVSNRFSGVPDRFSGSGSGTDFTLKISRVEAEDLGVYYCFQGSHVPVTFGAGTKLELK
class assignment: TRUE
--
binder: KCD131 (antibody, V domains shown, chimeric) VH: QVQLQQSGPELVKPGASVKISCKASAYTFTDYYINWVKQRPGQGPEWIGWIFPGSNSTYSNEKFEVKATLTVDESSSTAYMLLSSLTSEDSAVYFCARLGYFGSSYHALDYWGQGTSVTVSS VL: DIQMTQSPASLSVSVGETVTITCRASENIYSHLAWFQQKQGKSPRLLVYSATNLPDGVPSRFSGSGSGTQYSLKINILQSEDFGSYYCQHFWGTPWTFGGGTKLEIK
class assignment: TRUE
--
binder: KCD022 (antibody, V domains shown) VH: DVQLQESGPDLVKPSQSLSLTCTVTGYSITSGYSWHWIRQFPGNTLEWMGYIHYSGSTNYNPSLESRISFTRDTSKNQFFLQLNSVTTEDTATYYCALHFYGYNLGWYFDVWGAGTTVTVSS VL: DIVMTQSHKFMSTSIGDRVIITCKASQDVGTTVAWYQQRPGQSPKLLIYWASTRHTAVPDRFTGSGSGTDFTLTISNVQSEDLADYFCQQYTSYPLTFGAGTQLELK
class assignment: FALSE
--
binder: KCD015 (antibody, V domains shown) VH: EVQLQQSGAELVKPGASVKLSCTASGFNIKDTYMHWVKQRPEQGLEWIGRIDPANGYTEYDPKFQGKATITADTSSNTAYLQLSSLTSEDSAAYYCTSAMEFWGQGTSVTVSS VL: QIVLTQSPAILSASPGEKVTMTCSASSSVSYIYWYQQKPRSSPRLLIYDTSNLASGVPVRFSGSGSGTSYSLTISRMEAEDAATYYCQQWSSYPFTFGGGTKLEVK
class assignment: FALSE
